TEST_TARGET: HIV-1 JR-CSF Env N301A (HIV-1 JR-CSF) (UniProt P20871)
METHOD_DESCRIPTION: cell-based or functional assay
Can you tell me Fold IC50 increase relative to wild-type for the items I'm about to list?

Here are 3 binders together with their reported answers.
BINDER	Fold IC50 increase relative to wild-type
PGT-131 (antibody, V domains shown) VH: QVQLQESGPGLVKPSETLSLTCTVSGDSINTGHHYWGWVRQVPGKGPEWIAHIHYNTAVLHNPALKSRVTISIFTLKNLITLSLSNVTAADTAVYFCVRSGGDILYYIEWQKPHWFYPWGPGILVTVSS VL: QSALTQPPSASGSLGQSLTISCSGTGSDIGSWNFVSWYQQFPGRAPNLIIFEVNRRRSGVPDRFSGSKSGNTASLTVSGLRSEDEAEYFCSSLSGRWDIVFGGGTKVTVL	> 170 fold
PGT-126 (antibody, V domains shown) VH: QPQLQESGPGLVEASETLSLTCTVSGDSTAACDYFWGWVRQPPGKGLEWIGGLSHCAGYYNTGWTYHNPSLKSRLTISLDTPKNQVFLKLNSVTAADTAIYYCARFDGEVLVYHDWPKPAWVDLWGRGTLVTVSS VL: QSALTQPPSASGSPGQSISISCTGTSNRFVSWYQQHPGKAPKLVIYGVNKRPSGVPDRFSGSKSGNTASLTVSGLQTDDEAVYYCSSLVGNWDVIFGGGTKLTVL	314 fold
PGT-128 (antibody, V domains shown) VH: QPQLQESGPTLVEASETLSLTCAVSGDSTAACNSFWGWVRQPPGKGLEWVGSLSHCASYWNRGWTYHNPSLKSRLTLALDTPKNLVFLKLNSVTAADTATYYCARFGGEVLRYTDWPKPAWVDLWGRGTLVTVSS VL: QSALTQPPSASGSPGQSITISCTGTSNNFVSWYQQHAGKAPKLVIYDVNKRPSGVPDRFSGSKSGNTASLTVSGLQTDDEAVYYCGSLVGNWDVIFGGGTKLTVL	10.7 fold

The record that follows has no Fold IC50 increase relative to wild-type shown yet.
So for PGT-130 (antibody, V domains shown) VH: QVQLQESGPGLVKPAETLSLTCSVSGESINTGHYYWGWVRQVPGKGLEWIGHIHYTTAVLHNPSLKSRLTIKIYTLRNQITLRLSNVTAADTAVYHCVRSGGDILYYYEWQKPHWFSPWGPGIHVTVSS VL: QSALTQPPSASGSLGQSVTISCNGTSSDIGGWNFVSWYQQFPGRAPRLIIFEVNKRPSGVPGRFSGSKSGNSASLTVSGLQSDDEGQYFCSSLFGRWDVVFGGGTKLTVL , the logged Fold IC50 increase relative to wild-type turned out to be > 1000 fold
